// data source = paper PMC9301920

Test: In vivo zebrafish kinetics of BPZ (water exposure, organ concentrations by LC-MS/MS)
Design: species or system zebrafish (Danio rerio)
Conditions: female, zebrafish, brain, other: exposure via tank water, 10 μg/L (nominal water concentration), female zebrafish, 492 h (depuration phase); read-out: Mean concentration, brain
ASSAY READOUT: concentration at 492 h

Input: Tell me its concentration at 492 h given Oc1ccc(C2(c3ccc(O)cc3)CCCCC2)cc1 [BPZ, bisphenol Z] as the entry.
Output: < 2.5 ng/g

* * *

Assay: In vivo zebrafish kinetics of BPZ (water exposure, organ concentrations by LC-MS/MS)
Parameters: species or system zebrafish (Danio rerio)
Conditions: female, zebrafish, ovary, other: exposure via tank water, 10 μg/L (nominal water concentration), female zebrafish, 12 h; read-out: Mean concentration, ovary
ASSAY READOUT: concentration at 12 h (ng/g)
Unit ng/g implied. Number only.

Input: Let me know recorded concentration at 12 h for Oc1ccc(C2(c3ccc(O)cc3)CCCCC2)cc1 [BPZ, bisphenol Z] , thanks.
Output: 113

* * *

Assay: In vivo zebrafish kinetics of BPZ (water exposure, organ concentrations by LC-MS/MS)
Set-up: species or system zebrafish (Danio rerio)
Settings: female, zebrafish, liver, other: water exposure, 10 µg/L, female zebrafish, 411 h; read-out: Mean concentration, liver
ASSAY READOUT: concentration at 411 h (ng/g)
Response body: numeric value in ng/g, unit text excluded.

Input: Return value of concentration at 411 h for input Oc1ccc(C2(c3ccc(O)cc3)CCCCC2)cc1 , no commentary.
Output: 232

* * *

Assay: In vivo zebrafish kinetics of BPZ (water exposure, organ concentrations by LC-MS/MS)
Set-up: species or system zebrafish (Danio rerio)
Conditions: female, zebrafish, liver, other: water exposure, 10 µg/L, female zebrafish, 336 h; read-out: Mean concentration, liver
ASSAY READOUT: concentration at 336 h

Input: Supply reported concentration at 336 h belonging to this molecule: Oc1ccc(C2(c3ccc(O)cc3)CCCCC2)cc1
Output: 146 ng/g

* * *

Please respond with reported CL for every item in the list.
Assay: In vitro biotransformation rate, rainbow trout liver S9 (OECD TG 319)
Format: in vitro ADME
Conditions: series 2 (s2)

Input: Give a short answer stating reported CL for Oc1ccc(Cc2ccc(O)cc2)cc1 .
Output: 0.30 mL/(h x mg)

Input: Give me measured CL, please, for this compound: Oc1ccc(C(c2ccc(O)cc2)(C(F)(F)F)C(F)(F)F)cc1
Output: 0.80 mL/(h x mg)

Input: Dear colleague, please send me the reported CL for Cc1cc(C(C)(C)c2ccc(O)c(C)c2)ccc1O when you can.
Output: 1.05 mL/(h x mg)

Input: Using known records, supply CL for CCC(C)(c1ccc(O)cc1)c1ccc(O)cc1
Output: 1.00 mL/(h x mg)

Input: Kindly indicate its recorded CL. Item: Oc1ccc(C2(c3ccc(O)cc3)CCCCC2)cc1
Output: 0.26 mL/(h x mg)

Input: Indicate its recorded CL; the compound in question is CC(C)(c1cc(Br)c(O)c(Br)c1)c1cc(Br)c(O)c(Br)c1
Output: 4.45 mL/(h x mg)

Input: Specify measured CL for CC(c1ccccc1)(c1ccc(O)cc1)c1ccc(O)cc1 .
Output: 1.82 mL/(h x mg)

* * *

Assay: In vivo zebrafish kinetics of BPZ (water exposure, organ concentrations by LC-MS/MS)
Set-up: species or system zebrafish (Danio rerio)
Conditions: female, zebrafish, liver, other: exposure via tank water, 10 μg/L (nominal water concentration), female zebrafish, 576 h (depuration phase); read-out: Mean concentration, liver
ASSAY READOUT: concentration at 576 h (ng/g)
Write the value in ng/g as a bare number.

Input: Please supply the value of reported concentration at 576 h for the item Oc1ccc(C2(c3ccc(O)cc3)CCCCC2)cc1 [BPZ, bisphenol Z]
Output: 4.4

* * *

Assay: In vivo zebrafish kinetics of BPZ (water exposure, organ concentrations by LC-MS/MS)
Set-up: species or system zebrafish (Danio rerio)
Details: female, zebrafish, liver, other: water exposure, 10 µg/L, female zebrafish, 72 h; read-out: Mean concentration, liver
ASSAY READOUT: concentration at 72 h (ng/g)
Write the value in ng/g as a bare number.

Input: Indicate its recorded concentration at 72 h; the molecule in question is Oc1ccc(C2(c3ccc(O)cc3)CCCCC2)cc1
Output: 536

* * *

Experiment: In vivo zebrafish kinetics of BPZ (water exposure, organ concentrations by LC-MS/MS)
Parameters: species or system zebrafish (Danio rerio)
Conditions: female, zebrafish, brain, other: water exposure, 10 µg/L, female zebrafish, 72 h; read-out: Mean concentration, brain
ASSAY READOUT: concentration at 72 h (ng/g)
Please state the figure in ng/g; there is no need to write the unit.

Input: Entry Oc1ccc(C2(c3ccc(O)cc3)CCCCC2)cc1 [BPZ, bisphenol Z] needs its concentration at 72 h filled in; supply it.
Output: 170

* * *

Test: In vivo zebrafish kinetics of BPZ (water exposure, organ concentrations by LC-MS/MS)
Design: species or system zebrafish (Danio rerio)
Conditions: female, zebrafish, carcass, other: water exposure, 10 µg/L, female zebrafish, 48 h; read-out: Mean concentration, carcass
ASSAY READOUT: concentration at 48 h (ng/g)
Numeric only. Scale: ng/g

Input: For the compound Oc1ccc(C2(c3ccc(O)cc3)CCCCC2)cc1 , report concentration at 48 h.
Output: 612

* * *

Test: In vivo zebrafish kinetics of BPZ (water exposure, organ concentrations by LC-MS/MS)
Set-up: species or system zebrafish (Danio rerio)
Details: zebrafish; 17 μg/L in water, female, liver; observed
ASSAY READOUT: Cmax (ng/g)
Report only the number, with the unit ng/g understood.

Input: Look up and report measured Cmax for this entry: Oc1ccc(C2(c3ccc(O)cc3)CCCCC2)cc1
Output: 1010

* * *

Test: In vivo zebrafish kinetics of BPZ (water exposure, organ concentrations by LC-MS/MS)
Design: species or system zebrafish (Danio rerio)
Details: female, zebrafish, whole body, other: water exposure, 10 µg/L, female zebrafish, 12 h; read-out: Mean concentration, whole body (measured)
ASSAY READOUT: concentration at 12 h (ng/g)
Numeric answer only, unit ng/g assumed.

Input: For the compound Oc1ccc(C2(c3ccc(O)cc3)CCCCC2)cc1 [BPZ, bisphenol Z] , report concentration at 12 h.
Output: 336

* * *

Assay: In vivo zebrafish kinetics of BPZ (water exposure, organ concentrations by LC-MS/MS)
Design: species or system zebrafish (Danio rerio)
Details: zebrafish, 17 μg/L (water concentration); 17 μg/L in water, female, brain; observed
ASSAY READOUT: half-life (days)
Give just the numeric value; days need not be written.

Input: Input Oc1ccc(C2(c3ccc(O)cc3)CCCCC2)cc1 [BPZ, bisphenol Z] , output reported half-life.
Output: 5.61

* * *

Test: In vivo zebrafish kinetics of BPZ (water exposure, organ concentrations by LC-MS/MS)
Parameters: species or system zebrafish (Danio rerio)
Conditions: female, zebrafish, carcass, other: water exposure, 10 µg/L, female zebrafish, 411 h; read-out: Mean concentration, carcass
ASSAY READOUT: concentration at 411 h (ng/g)
Please state the figure in ng/g; there is no need to write the unit.

Input: Kindly indicate its recorded concentration at 411 h. Item: Oc1ccc(C2(c3ccc(O)cc3)CCCCC2)cc1 [BPZ, bisphenol Z]
Output: 557

* * *

Test: In vivo zebrafish kinetics of BPZ (water exposure, organ concentrations by LC-MS/MS)
Design: species or system zebrafish (Danio rerio)
Conditions: zebrafish; 17 μg/L in water, female, whole body; observed
ASSAY READOUT: Cmax (ng/g)
Record the value in ng/g, omitting the unit from your answer.

Input: Provide one value: measured Cmax of Oc1ccc(C2(c3ccc(O)cc3)CCCCC2)cc1 [BPZ, bisphenol Z]
Output: 900

* * *

Assay: In vivo zebrafish kinetics of BPZ (water exposure, organ concentrations by LC-MS/MS)
Set-up: species or system zebrafish (Danio rerio)
Conditions: zebrafish; 17 μg/L in water, female, liver; observed
Protocol: At sampling, adult fish were euthanized by immersion in a sodium bicarbonate-buffered tricaine methanesulfonate solution (MS222: 500 mg/L) and decapitated thereafter. […] 176The extracts were measured on a LC (ExionLC, Sciex) coupled with a Turbo V Ion source (ESI) […] 195plus the average blank value. The limit of quantification (LOQ) is defined as 3.3 * LOD value […] Detection and report limits (calculated on based of average sample intake)
ASSAY READOUT: half-life (h)
Numbers only; they are read as h.

Input: Entry Oc1ccc(C2(c3ccc(O)cc3)CCCCC2)cc1 [BPZ, bisphenol Z] needs its half-life filled in; supply it.
Output: 210

* * *

Assay: In vivo zebrafish kinetics of BPZ (water exposure, organ concentrations by LC-MS/MS)
Parameters: species or system zebrafish (Danio rerio)
Settings: female, zebrafish, brain, other: exposure via tank water, 10 μg/L (nominal water concentration), female zebrafish, 12 h; read-out: Mean concentration, brain
Protocol: At sampling, adult fish were euthanized by immersion in a sodium bicarbonate-buffered tricaine methanesulfonate solution (MS222: 500 mg/L) and decapitated thereafter. […] 176The extracts were measured on a LC (ExionLC, Sciex) coupled with a Turbo V Ion source (ESI) […] 195plus the average blank value. The limit of quantification (LOQ) is defined as 3.3 * LOD value […] Detection and report limits (calculated on based of average sample intake)
ASSAY READOUT: concentration at 12 h (ng/g)
Respond with the bare value in ng/g.

Input: Specify reported concentration at 12 h for the compound shown: Oc1ccc(C2(c3ccc(O)cc3)CCCCC2)cc1
Output: 82.1
